Experiment: protein stability index of a GFP-peptide fusion (GPS, HEK-293T) (PSI 1-6); higher = more stable;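 also: 24-mer peptide tiles fused after GFP, lentivirally expressed, FACS-sorted into six equal bins by GFP/DsRed ratio, decoded by Illumina sequencing, PSI is the read-weighted mean bin number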
Details: treatment: DMSO; c terminus: a fixed tail appended
measure name: protein stability index
Would you mind answering with just the numeric figure?

{"seq text": "DNVPDPKDVKERFSGSLVAALSAT [TMEM175]", "measure name": "protein stability index", "test value": 4.42}
{"seq text": "DVLLLGNDYIVPRHCPELAEMSRV [HNF4A]", "measure name": "protein stability index", "test value": 2.65}
{"seq text": "NPTEPATIIFTAAREGRETLKCLS [TOR1AIP2]", "measure name": "protein stability index", "test value": 3.71}
{"seq text": "RYRQAGSSGPGNSQNSFLVQEVME [RPAIN]", "measure name": "protein stability index", "test value": 4.17}

Query: Note protein stability index for the sequence shown: SVTGLDPEARYLFLLDVIPVDGAR [TBX6]
Reply: 2.15

Query: Note protein stability index for the sequence shown: QEYEALLNIKVKLEAEIATYRRLL [KRT18]
Reply: 2.89

Query: Note protein stability index for the sequence shown: EKEKEKHKVKAEEEKKAKVAPPAK [BRD3]
Reply: 5.38

Query: Note protein stability index for the sequence shown: VRNLFGLDPSSGAIHVLGPIDFEE [PCDHGC5]
Reply: 2.19

Query: Note protein stability index for the sequence shown: LTQTMHDLAGLGSETPKSQVGTLL [CDC25B]
Reply: 3.39

These measurements were taken from the supplement of paper PMC10567573.
